# procedureText: Phase 1 first-in-human study, plasma pharmacokinetics
# Type: in vivo
# conditionsUsed: male, human, plasma, po, 12 mg, single 12 mg oral solution, male fasted; read-out: t1/2, dom (converted)

compound: C=CC(=O)N[C@H]1CCC[C@H]1NC(=O)c1sc2nccc3c2c1NC(=O)N3c1cnc(CC(C)C)cc1C (atropisomer, axis not shown) [compound of Formula (III)]
scaleUnit: min
half-life: 90

====

# procedureText: Preclinical PK, oral and IV
# conditionsUsed: dog, in vivo; oral

compound: C=CC(=O)N[C@H]1CCC[C@H]1NC(=O)c1sc2nccc3c2c1NC(=O)N3c1cnc(CC(C)C)cc1C (atropisomer, axis not shown) [compound of Formula (III)]
Cmax (ng/mL): 890

====

# procedureText: Phase 1 first-in-human study, plasma pharmacokinetics
# Type: in vivo
# conditionsUsed: male, human, plasma, po, 100 mg, single 100 mg oral solution, male fasted; read-out: AUClast
readoutKind: AUC(0-t) (ng·h/mL)

compound: C=CC(=O)N[C@H]1CCC[C@H]1NC(=O)c1sc2nccc3c2c1NC(=O)N3c1cnc(CC(C)C)cc1C (atropisomer, axis not shown) [compound of Formula (III)]
readoutKind: AUC(0-t)
assayResult: 2140

====

# procedureText: Blood-to-plasma concentration ratio
# Format: in vitro ADME
# conditionsUsed: monkey, fresh blood
readoutKind: blood plasma ratio at 1 μM

molecule: C=CC(=O)N[C@H]1CCC[C@H]1NC(=O)c1sc2nccc3c2c1NC(=O)N3c1cnc(CC(C)C)cc1C (atropisomer, axis not shown)
assayResult: 0.69

====

# procedureText: Preclinical PK, oral and IV
# Format: in vivo, monkey
# conditionsUsed: monkey, in vivo; oral; read-out: Oral AUCinf

molecule: C=CC(=O)N[C@H]1CCC[C@H]1NC(=O)c1sc2nccc3c2c1NC(=O)N3c1cnc(CC(C)C)cc1C (atropisomer, axis not shown)
scaleUnit: ng·h/mL
AUC(0-inf): 10000

====

# procedureText: Phase 1 first-in-human study, plasma pharmacokinetics
# Assay type: in vivo
# conditionsUsed: male, human, plasma, po, 400 mg, single 400 mg oral solution, male fasted
readoutKind: AUC(0-inf)

molecule: C=CC(=O)N[C@H]1CCC[C@H]1NC(=O)c1sc2nccc3c2c1NC(=O)N3c1cnc(CC(C)C)cc1C (atropisomer, axis not shown) [compound of Formula (III)]
readoutKind: AUC(0-inf)
assayResult: 4.2 µg·h/mL

====

# procedureText: Phase 1 first-in-human study, plasma pharmacokinetics
# Type: in vivo
# conditionsUsed: male, human, plasma, po, 36 mg, single 36 mg oral solution, male fasted; read-out: t1/2, λz (converted)
# Protocol: Safety, tolerability, PK, and BTKO were assessed for six doses of compound of Formula (III) oral solution (4, 12, 36, 100, 200, 400 mg) in participants under fasted conditions. The SAD part comprised 10 cohorts of 8 participants each (FIG. 1). […] Safety, tolerability, and PK of a solid dose formulation of compound of Formula (III) were assessed in an additional male cohort (Cohort 10) that received 3×35 mg (105 mg) of compound of Formula (III) in the fasted state. […]

compound: C=CC(=O)N[C@H]1CCC[C@H]1NC(=O)c1sc2nccc3c2c1NC(=O)N3c1cnc(CC(C)C)cc1C (atropisomer, axis not shown)
half-life: 2.1 h

====

# procedureText: Plasma protein binding, equilibrium dialysis
# Assay type: in vitro ADME
# conditionsUsed: CD-1, mouse, 0.25 μM, read-out: % Free in plasma

compound: C=CC(=O)N[C@H]1CCC[C@H]1NC(=O)c1sc2nccc3c2c1NC(=O)N3c1cnc(CC(C)C)cc1C (atropisomer, axis not shown)
fraction unbound at 0.25 μM: 0.0192

====

# procedureText: Phase 1 first-in-human study, plasma pharmacokinetics
# Type: in vivo
# conditionsUsed: male, human, plasma, po, 100 mg, single 100 mg oral solution, male fed (high-fat breakfast); read-out: AUC0-24 h

molecule: C=CC(=O)N[C@H]1CCC[C@H]1NC(=O)c1sc2nccc3c2c1NC(=O)N3c1cnc(CC(C)C)cc1C (atropisomer, axis not shown)
AUC(0-t), ng·h/mL: 1720

====

# procedureText: Phase 1 first-in-human study, plasma pharmacokinetics
# Format: in vivo
# conditionsUsed: male, human, plasma, po, 105 mg, single 105 mg (3 × 35 mg) oral capsule, male fasted; read-out: AUClast
readoutKind: AUC(0-t) (ng·h/mL)

compound: C=CC(=O)N[C@H]1CCC[C@H]1NC(=O)c1sc2nccc3c2c1NC(=O)N3c1cnc(CC(C)C)cc1C (atropisomer, axis not shown)
readoutKind: AUC(0-t)
scaleUnit: ng·h/mL
assayResult: 1450

====

# procedureText: Phase 1 first-in-human study, plasma pharmacokinetics
# Type: in vivo
# conditionsUsed: male, human, plasma, po, 36 mg, single 36 mg oral solution, male fasted; read-out: AUClast

molecule: C=CC(=O)N[C@H]1CCC[C@H]1NC(=O)c1sc2nccc3c2c1NC(=O)N3c1cnc(CC(C)C)cc1C (atropisomer, axis not shown)
AUC(0-t), µg·h/mL: 0.649

====

# targetOfAssay: ADRB1 (Adrenergic beta) (Homo sapiens, UniProt P08588)
# Sequence (P08588 whole entry, species assumed): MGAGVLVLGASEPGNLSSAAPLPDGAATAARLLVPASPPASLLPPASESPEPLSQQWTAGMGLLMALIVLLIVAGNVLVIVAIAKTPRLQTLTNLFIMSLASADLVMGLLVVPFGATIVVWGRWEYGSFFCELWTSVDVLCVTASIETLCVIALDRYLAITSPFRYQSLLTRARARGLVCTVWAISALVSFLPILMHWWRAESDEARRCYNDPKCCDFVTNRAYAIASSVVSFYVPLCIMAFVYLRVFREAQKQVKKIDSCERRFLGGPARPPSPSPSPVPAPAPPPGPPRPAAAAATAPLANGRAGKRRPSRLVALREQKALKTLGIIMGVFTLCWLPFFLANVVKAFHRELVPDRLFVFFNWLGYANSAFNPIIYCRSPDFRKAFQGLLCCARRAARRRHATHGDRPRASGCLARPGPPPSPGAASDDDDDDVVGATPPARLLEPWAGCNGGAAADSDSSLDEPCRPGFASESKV
pIC50: −log10 of the molar value.
readoutKind: pIC50

molecule: C=CC(=O)N[C@H]1CCC[C@H]1NC(=O)c1sc2nccc3c2c1NC(=O)N3c1cnc(CC(C)C)cc1C (atropisomer, axis not shown)
assayResult: < 4.90

====

# procedureText: Phase 1 first-in-human study, plasma pharmacokinetics
# Format: in vivo
# conditionsUsed: both sexes, human, plasma, po, 200 mg, 200 mg QD oral solution, fed, Day 1; read-out: AUC0-24 h

compound: C=CC(=O)N[C@H]1CCC[C@H]1NC(=O)c1sc2nccc3c2c1NC(=O)N3c1cnc(CC(C)C)cc1C (atropisomer, axis not shown)
scaleUnit: ng·h/mL
AUC(0-t): 2560

====

# targetOfAssay: BLK (Homo sapiens)
# Sequence (P51451 whole entry): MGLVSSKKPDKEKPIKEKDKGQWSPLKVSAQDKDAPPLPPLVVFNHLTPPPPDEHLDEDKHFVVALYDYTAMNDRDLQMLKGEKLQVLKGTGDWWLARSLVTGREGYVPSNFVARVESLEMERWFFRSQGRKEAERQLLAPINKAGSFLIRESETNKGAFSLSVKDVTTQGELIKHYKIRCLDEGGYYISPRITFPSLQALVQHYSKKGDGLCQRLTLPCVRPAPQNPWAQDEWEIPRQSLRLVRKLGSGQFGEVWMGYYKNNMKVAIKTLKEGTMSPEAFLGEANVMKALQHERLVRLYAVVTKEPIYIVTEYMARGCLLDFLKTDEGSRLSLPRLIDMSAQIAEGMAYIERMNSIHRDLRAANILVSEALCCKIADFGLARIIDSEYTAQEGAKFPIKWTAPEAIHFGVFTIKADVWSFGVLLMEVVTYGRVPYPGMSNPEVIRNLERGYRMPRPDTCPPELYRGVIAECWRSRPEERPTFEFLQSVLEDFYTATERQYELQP

compound: C=CC(=O)N[C@H]1CCC[C@H]1NC(=O)c1sc2nccc3c2c1NC(=O)N3c1cnc(CC(C)C)cc1C (atropisomer, axis not shown)
targetOfAssay: BLK (Homo sapiens)
IC50 / µM: 3.13

====

# procedureText: Phase 1 first-in-human study, plasma pharmacokinetics
# Format: in vivo
# conditionsUsed: male, human, plasma, po, 36 mg, single 36 mg oral solution, male fasted; read-out: tmax, median (min-max)
readoutKind: Tmax (h)

compound: C=CC(=O)N[C@H]1CCC[C@H]1NC(=O)c1sc2nccc3c2c1NC(=O)N3c1cnc(CC(C)C)cc1C (atropisomer, axis not shown)
scaleUnit: h
assayResult: 1

====

# targetOfAssay: UniProtKB P05181
# Sequence (P05181 whole entry): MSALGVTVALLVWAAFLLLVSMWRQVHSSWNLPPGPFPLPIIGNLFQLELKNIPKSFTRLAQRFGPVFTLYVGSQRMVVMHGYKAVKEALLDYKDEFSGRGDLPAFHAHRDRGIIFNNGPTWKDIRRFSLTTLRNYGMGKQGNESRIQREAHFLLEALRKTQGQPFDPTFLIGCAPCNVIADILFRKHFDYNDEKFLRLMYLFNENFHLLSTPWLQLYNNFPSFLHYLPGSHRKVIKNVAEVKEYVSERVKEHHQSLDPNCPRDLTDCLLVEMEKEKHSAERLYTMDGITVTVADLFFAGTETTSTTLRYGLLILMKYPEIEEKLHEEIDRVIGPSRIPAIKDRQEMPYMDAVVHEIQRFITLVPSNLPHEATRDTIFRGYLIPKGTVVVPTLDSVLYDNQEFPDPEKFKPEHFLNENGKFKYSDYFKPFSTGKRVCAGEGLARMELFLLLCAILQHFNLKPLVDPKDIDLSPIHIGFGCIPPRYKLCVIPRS

compound: C=CC(=O)N[C@H]1CCC[C@H]1NC(=O)c1sc2nccc3c2c1NC(=O)N3c1cnc(CC(C)C)cc1C (atropisomer, axis not shown) [compound of Formula (III)]
targetOfAssay: UniProtKB P05181
IC50: > 50 µM

====

# procedureText: Phase 1 first-in-human study, plasma pharmacokinetics
# Format: in vivo
# conditionsUsed: female, human, plasma, po, 36 mg, single 36 mg oral solution, female fasted; read-out: AUClast
readoutKind: AUC(0-t) (ng·h/mL)

compound: C=CC(=O)N[C@H]1CCC[C@H]1NC(=O)c1sc2nccc3c2c1NC(=O)N3c1cnc(CC(C)C)cc1C (atropisomer, axis not shown) [compound of Formula (III)]
assayResult: 816

====

Target sequence: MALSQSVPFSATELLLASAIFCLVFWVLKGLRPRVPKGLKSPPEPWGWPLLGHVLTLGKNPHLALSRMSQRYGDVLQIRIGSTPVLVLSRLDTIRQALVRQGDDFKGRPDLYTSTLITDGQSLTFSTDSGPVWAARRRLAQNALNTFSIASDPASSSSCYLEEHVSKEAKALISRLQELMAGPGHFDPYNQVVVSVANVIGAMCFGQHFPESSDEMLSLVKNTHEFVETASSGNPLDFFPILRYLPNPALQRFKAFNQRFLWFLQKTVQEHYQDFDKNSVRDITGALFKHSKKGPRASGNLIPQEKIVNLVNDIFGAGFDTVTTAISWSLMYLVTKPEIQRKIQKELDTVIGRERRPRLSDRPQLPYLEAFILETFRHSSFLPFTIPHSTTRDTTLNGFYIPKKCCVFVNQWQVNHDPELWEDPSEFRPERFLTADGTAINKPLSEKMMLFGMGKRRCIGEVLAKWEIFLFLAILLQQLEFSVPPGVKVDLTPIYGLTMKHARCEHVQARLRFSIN
pIC50: −log10 of the molar value.

molecule: C=CC(=O)N[C@H]1CCC[C@H]1NC(=O)c1sc2nccc3c2c1NC(=O)N3c1cnc(CC(C)C)cc1C (atropisomer, axis not shown)
pIC50: < 4.30

====

# Test system: P-gp (MDR1)
# procedureText: in vitro
# conditionsUsed: dog, MDCK-MDR1

molecule: C=CC(=O)N[C@H]1CCC[C@H]1NC(=O)c1sc2nccc3c2c1NC(=O)N3c1cnc(CC(C)C)cc1C (atropisomer, axis not shown)
targetOfAssay: P-gp (MDR1)
prefixOperator: <
Papp A→B at 5 μM, ×10⁻⁶ cm/s: 0.483
//
molecule: COc1cc2nc(N3CCN(C(=O)c4ccco4)CC3)nc(N)c2cc1OC
targetOfAssay: P-gp (MDR1)
prefixOperator: =
Papp A→B at 5 μM, ×10⁻⁶ cm/s: 1.8
//
molecule: CC(C)NCC(O)COc1cccc2ccccc12 (stereo not drawn) [Propranolol, reference compound]
targetOfAssay: P-gp (MDR1)
prefixOperator: =
Papp A→B at 5 μM, ×10⁻⁶ cm/s: 28.6
